molecular target: human VPAC2 (Homo sapiens); construct: expressed in transfected cells; experiment: DiscoveRx cAMP in vitro potency, CHO-S cell line stably expressing human VPAC2 receptor; assay type: cell-based; conditions: cAMP generation; mean of two independent runs
Where no end group is shown, it is not given here. The star is where a group is joined. Hexanoyl = CCCCCC(=O)*
Param label: returns Criterion met when EC50 < 10 nM, returns Criterion not met otherwise, including exact equality.

| substance | label |
| --- | --- |
| Hexanoyl-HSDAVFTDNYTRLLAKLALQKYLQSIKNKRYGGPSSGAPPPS [Agonist P119] | Criterion met |
| HSDAVITDNYTRLRKQVAAKKYLQSIKNKRYGGPSSGAPPPS [Agonist P63] | Criterion not met |
| HSDATFTDNYTRLRKQVAAKKYLQSIKNKRYGGPSSGAPPPS [Agonist P62] | Criterion not met |
| HSDAVFTDNYTRAAAKVAAKKYLQSIKNKRYGGPSSGAPPPS [Agonist P88] | Criterion not met |
| H-HTDAVFTDNYTRLRKQVAAKKYLQSIKNKRYGGPSSGAPPPS [Agonist P45] | Criterion not met |
| HSDIVFTDNYTRLRKQVAAKKYLQSIKNKRYGGPSSGAPPPS [Agonist P50] | Criterion not met |
| Hexanoyl-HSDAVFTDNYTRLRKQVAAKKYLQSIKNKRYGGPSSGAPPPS [Agonist P31] | Criterion met |
| HSDAVFTDNYTRLRKQVAAKKYLQSIRNKRYGGPSSGAPPPS [Agonist P23] | Criterion met |
| HVDAVFTDNYTRLRKQVAAKKYLQSIKNKRYGGPSSGAPPPS [Agonist P44] | Criterion met |

---

Molecular target: human VPAC2 (Homo sapiens, UniProt P41587)
Construct: expressed in transfected cells
Sequence (P41587 24-438): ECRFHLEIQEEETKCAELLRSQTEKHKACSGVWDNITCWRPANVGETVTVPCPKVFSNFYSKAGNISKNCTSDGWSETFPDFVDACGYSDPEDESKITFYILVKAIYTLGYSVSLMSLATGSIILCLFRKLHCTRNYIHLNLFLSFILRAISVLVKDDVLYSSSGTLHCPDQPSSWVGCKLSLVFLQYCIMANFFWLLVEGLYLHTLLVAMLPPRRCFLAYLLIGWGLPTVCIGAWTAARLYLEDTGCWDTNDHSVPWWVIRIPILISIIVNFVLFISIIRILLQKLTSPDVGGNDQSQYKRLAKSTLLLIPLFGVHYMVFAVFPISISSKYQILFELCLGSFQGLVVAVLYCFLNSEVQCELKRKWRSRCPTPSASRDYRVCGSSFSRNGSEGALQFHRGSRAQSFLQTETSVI
Assay: Filter binding assay, membranes of stable VPAC2 cell line, 125I-labeled VIP tracer (Table 2)
Conditions: read-out: Human VPAC2 Receptor Binding
Where no end group is shown, it is not given here. [ ]: non-standard residue; d: D form. The star is where a group is joined. hArg = N=C(N)NCCCC[C@H](N)C(=O)O; Hexanoyl = CCCCCC(=O)*; Aib = CC(C)(N)C(=O)O

| substance | readout-unit | IC50 |
| --- | --- | --- |
| Hexanoyl-HSDAVFTDNYTRLR[Aib]QAAA[Aib]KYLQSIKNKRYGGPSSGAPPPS [Agonist P324] | nM | 0.43 |
| Hexanoyl-HSDAVFTDNYTRLRKQVAAKKYLQS[Aib]KNKRYGGPSSGAPPPS [Agonist P188] | nM | 0.29 |
| Hexanoyl-HSDAVFTDNYTRLRFQVAAKKYLQSIKNKRYGGPSSGAPPPS [Agonist P180] | nM | 5.63 |
| Hexanoyl-HSDAVFTDNYTRLLKQVAAKKYLQSIKNKRYGGPSSGAPPPS [Agonist P174] | nM | 55.1 |
| [dH]SDAVFTDNYTRLRKQVAAKKYLQSIKNKRYGGPSSGAPPPS [Agonist P84] | nM | 20 |
| Hexanoyl-HSDAVFTDNYTRLL[Aib]QVAA[Aib]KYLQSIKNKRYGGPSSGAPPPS [Agonist P317] | nM | 1.23 |
| Hexanoyl-HVDAVFTDNYTRLRKQVAAKKYLQSIKNKRYGGPSSGAPPPS [Agonist P99] | nM | 1.72 |
| Hexanoyl-HSDAVFTDNYTRLRLQVAAKKYLQSIKNKRYGGPSSGAPPPS [Agonist P179] | nM | 0.42 |
| Hexanoyl-HGEGTFTDNYTRLRKQVAAKKYLQSIKNKRYGGPSSGAPPPS [Agonist P222] | nM | 1.05 |
| HSDAVFTDNYTRLRKQVAAKKYLQSIKN[hArg]RYGGPSSGAPPPS [Agonist P24] | nM | 1.97 |
| Hexanoyl-HSDAVFTDNYTRLR[Aib]QVAAK[Aib]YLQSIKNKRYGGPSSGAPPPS [Agonist P264] | nM | 0.88 |
| H-HSDAVFTDNYTRLRKQVAAKKYLQSI[hArg]NKRYGGPSSGAPPPS [Agonist P22] | nM | 0.87 |
| Hexanoyl-HSDAVFTDNYTRLRKQVAAKKYVQSIKNKRYGGPSSGAPPPS [Agonist P234] | nM | 0.33 |
| Hexanoyl-HHSDAVFTDNYTRLLAKLALQKYLQSIKNKRYGGPSSGAPPPS [Agonist P191] | nM | 60.6 |
| Hexanoyl-HSDAVFTDNYTRLRKQVAAK[Aib]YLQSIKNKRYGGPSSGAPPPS [Agonist P170] | nM | 0.34 |
| Hexanoyl-HSDAVFTDNYTRLRKQVAGKKYLQSIKNKRYGGPSSGAPPPS [Agonist P275] | nM | 0.38 |
| Hexanoyl-HSDAVFTLNYTRLRKQVAAKKYLQSIKNKRYGGPSSGAPPPS [Agonist P161] | nM | 6.61 |
